Test system: BT-549 breast
Experiment: NCI-60 one-dose screen, 48 h
Details: 10 µM unless noted
Compounds without any hit were thinned out: in the full panel of roughly 83,000, 20% have a hit. Activity calls are given as the source filed them. How the source made its calls: active means growth percent below 10; inactive means the rest.
Hi! Could you answer with just one of these? 1 = active, -1 = inactive

Field: outcome | Entry: O=C1c2ccccc2C(=O)c2c1oc1ccc3ccccc3c21
-1

What is the recorded call for this compound in the test? C/C(=N\OC(=O)Nc1cccc(Cl)c1)c1ccccc1
-1

// return assay outcome for COc1ccc(/C=c2\c(=O)n(-c3ccccc3)c3nn4c(n23)=NNC42CCCCC2)cc1
-1

Please let me know the test result on file for Cc1ccc(O)c(Cc2ccccc2)c1 .
-1

Would you mind telling me which call this test gave C=CCn1c(SCC(=O)Nc2ccc(C(=O)/C=C/c3ccccc3)cc2)nnc1-c1ccc(OC)c(OC)c1 ?
-1

Entry O=C(/C=C/c1cc([N+](=O)[O-])ccc1Cl)c1ccccc1 : call = ?
-1

For this compound, state the assay outcome: CNC(=O)c1cc(Oc2ccc(NC(=O)c3nc(S(C)(=O)=O)n(C)c3-c3ccc(F)cc3)cc2)ccn1
-1

Could you kindly confirm the outcome this assay logged for O=C(c1ccc(C(F)(F)F)c(Cl)c1)N(Cc1ccc(Cl)cc1)c1ccc(-c2cc(C(F)(F)F)[nH]n2)c(O)c1 ?
-1

Could you check what this test reported for O=c1cc(-c2ccc3c(c2)OCCO3)oc2cc(Cl)ccc12 ?
-1

Assay result, entry OC(c1cc(-c2ccc(C(F)(F)F)cc2)nc(-c2ccc(C(F)(F)F)cc2)c1)C1CCCCN1 (centres undefined) — outcome?
1

Please state the recorded outcome for this compound: O=C(Cn1nncc1CN1C(=O)CSC1=O)Nc1ccc(F)cc1
-1

// outcome(item) with item = COc1cc2c(cc1OC)C(=O)C(Br)CC2 (centres undefined)
-1

In this assay, the call recorded for Cc1cc(N=Nc2ccc(-c3ccc(N=Nc4ccc(O)c(C(=O)O)c4)cc3)cc2)c(N)c(N=Nc2ccc(C(=O)O)cc2)c1N was what?
-1

Dear all, I need the recorded test outcome for Clc1ccc(Nc2ncnc3c2sc2ncccc23)cc1 , thank you.
-1

Test call for this compound, please: CCCCn1c(C)nc2ccc(Nc3nc(Cl)nc4nc[nH]c34)cc21
-1

How did this test come out for CC(C)c1ccc(Cn2ccc3c4c(N)nc(NC5CC5)nc4ccc32)cc1 ?
1

I'd appreciate the recorded outcome for NC(=O)c1noc(C(=O)c2ccccc2)c1N from this test.
-1

Just curious, what result did O=C(Nc1ccc(OS(=O)(=O)c2ccc(F)cc2)cc1)C12CC3CC(CC(C3)C1)C2 get here?
-1

Outcome? COc1ccc(-c2[nH]nc(N)c2-c2cc(OC)c(OC)c(OC)c2)cc1
1

What classification did CCCc1n(Cc2ccc3ccccc3c2)c2ccccc2[n+]1Cc1ccc2ccccc2c1 end up with in this test?
1

Tell me the assay call for COc1ccc(NC(=O)C2c3ccccc3C(=O)N(CC(C)C)C2c2cccs2)cc1 (centres undefined) please.
-1

Recorded call for C=CCN(CCOC(=O)c1ccc([N+](=O)[O-])cc1)CCOC(=O)c1ccc([N+](=O)[O-])cc1 ?
-1

Which outcome did this test record for the compound Clc1ccc(Nc2ncnc3c2sc2ncccc23)c(Cl)c1 ?
-1

Just curious, what result did CN1CCN(Cc2ccc(NC(=O)c3cnc(F)c(C#Cc4cnc(N)c5ncccc45)c3)cc2C(F)(F)F)CC1 get here?
-1

Please share the test call associated with CCN(CC)CCNc1c(C)cc(CO)c(Cl)c1C .
-1

Please share the test call associated with C#CC[C@@H]1C[C@]2(C)[C@H]3CC[C@@H]4[C@H]5C(C(=C)C)CC[C@]5(C(=O)NCCCN5CCN(CCCN)CC5)CC[C@@]4(C)[C@]3(C)CC[C@H]2C(C)(C)[C@H]1OC(C)=O (some centres undefined) .
-1

For C/C(=N\NC(=S)Nc1ccccc1)c1ccccn1 , what call appears in the results of this test?
-1

Assay result, entry Cc1cc(O)c(C2=NN(c3ccc(S(N)(=O)=O)cc3)C(c3ccc(Cl)cc3)C2)c(C)c1Cl (centres undefined) — outcome?
-1

So what was the verdict on COc1ccc(C(=O)/C=C/c2cn(-c3ccccc3)nc2-c2cccc(Nc3ccnc4cc(Cl)ccc34)c2)cc1 in this test?
-1

// return assay outcome for N#CC1=C(N)Oc2nc[nH]c(=O)c2C1c1cccs1 (centres undefined)
-1

Tell me the recorded outcome of this test for O=C(Nc1ccc(Cl)c(C(F)(F)F)c1)c1ccc(Nc2ccc(Cl)nn2)cc1 .
-1

What was the test verdict on CC(=O)[C@H]1CC[C@H]2[C@@H]3CC[C@H]4CC=CC[C@]4(C)[C@H]3CC[C@]12C ?
-1

Hi, sorry to bother you, what did the test record for COc1ccc(/C=C2\CCCC3=C2N=C2SC(C)=NN2C3c2ccc(OC)c(OC)c2)cc1OC (centres undefined) ?
-1

Please indicate how the test categorized COc1ccc(-c2nc(-c3ccccc3OCc3ccccc3OC)nc(C)c2C(C)=O)cc1 .
-1

----------
Tested on: MDA-MB-231 breast
Test: NCI-60 one-dose screen, 48 h
Settings: 10 µM unless noted
This is part of a sample that, as a whole, favours compounds with a hit. Of some 83,000 tested, about 20% had one in any assay. Active and inactive are the calls of the source. The calls were made as follows: active = growth percent below 10; inactive = the rest.
Parameter call: string, one of 1 (active), -1 (inactive)

Assay outcome for Cc1cc(C)c2c(n1)sc1c(Nc3ccc(Cl)cc3Cl)ncnc12 : what was it?
-1

State the result this test recorded for Nc1c(C(=O)Nc2cccc(Cl)c2)sc2ncc(Br)cc12 .
-1

// param item: C[C@@H]1C[C@H](N)C[C@H](c2ccncc2NC(=O)c2ccc(F)c(-c3c(F)cccc3F)n2)C1 ; yields the recorded call
-1

Fill in: this test's call for CCCCNCC(O)c1cc2c(Cl)cc(Cl)cc2c2cc(C(F)(F)F)ccc12 (configuration not stated) is ___
1

Status in this test for Cc1nc([C@H]2CC[C@H]3[C@@H]4CCC5=CC(=O)CC[C@]5(C)[C@H]4CC[C@]23C)cs1 ?
-1

Recorded test outcome, item CC(C)N=C1CCCC1C(=S)SSC(=S)C1CCCC1=NC(C)C (configuration not stated)
-1

I would be grateful if you could indicate the recorded call for CNC(=O)c1ccccc1Sc1ccc2c(/C=C/c3ccccn3)n[nH]c2c1 .
-1

Please let me know the test result on file for COc1ccc(C(=O)C(CN(C)C)c2ccccc2)cc1 (configuration not stated) .
-1

# lookup: test call for O=C1C(Cl)=C(N/N=c2/[nH][nH]/c(=N/NC3=C(Cl)C(=O)c4ccccc4C3=O)c3ccccc23)C(=O)c2ccccc21
-1

Could you please tell me the result logged for COc1ccc(Br)c2ccccc12 in this assay?
-1

// outcome(item) with item = Nc1nc(N)c2cc(CNc3ccc(Cl)c(Cl)c3)ccc2n1
1

Assay outcome for CN1CCN(c2ccc(N3Cc4ccccc4OC4=C3C(=O)c3c(O)ccc(O)c3C4=O)cn2)CC1 : what was it?
1

Recorded call for CCc1ccc2c(c1)N(CCO)C1=C(C(=O)OC1)C2c1cccc(Br)c1 (configuration not stated) ?
-1

Field: outcome | Entry: CC(=O)OC1Oc2cc(C)c(C)cc2-c2oc(=O)c(-c3cc4ccccc4oc3=O)cc21 (configuration not stated)
-1

Test call for this compound, please: CCN(CC)CCCC(C)Nc1cnc(C(=O)Nc2ccc(Cl)c3cccnc23)cn1 (configuration not stated)
1

Query: recorded result category for CCCCCCCCCCCCCC[N+](C)(C)CCCCCCCCCCCCCC in this test
-1

Test call, this compound: CS(=O)(=O)Nc1cc(-c2cc3ncc(C#N)c(Nc4ccc(Oc5ccccc5)c(Cl)c4)c3s2)cnc1Cl
-1

What call does the record list for CC(=O)N[C@@H](CCC(N)=O)C(=O)O ?
-1

State the result this test recorded for OC(c1cc(-c2ccc(C(F)(F)F)cc2)nc(-c2ccc(C(F)(F)F)cc2)c1)C1CCCCN1 (configuration not stated) .
1

Each compound tested received a call. Report the one for CN1CCN(Cc2ccc(NC(=O)c3cncc(C#Cc4ncc5ccccn45)c3)cc2C(F)(F)F)CC1 .
-1

Hey, what did the test say about C/C(=N\NC(=S)N1CCCCC1)c1ccccn1 ?
-1

I'd appreciate the recorded outcome for C=C(CN1CC=CCC1)[C@@H]1CC[C@]2(C(=O)OC)CC[C@]3(C)[C@H](CC[C@@H]4[C@@]5(C)CC[C@H](OC(C)=O)C(C)(C)[C@@H]5CC[C@]43C)[C@@H]12 from this test.
-1

Lab log entry: Nc1c(C(=O)c2ccc(Br)cc2)sc2nc3c(cc12)CCCC3 — outcome as called in the assay?
-1

Dear colleague, could you share the recorded outcome for COc1ccc(/C(=C\c2cc(OC)c(OC)c(OC)c2)C(=O)N2CCNCC2)cc1 when you have a moment?
-1

What did this assay record as the result for COc1cc(C2CC(c3cccc(Nc4ccnc5cc(Cl)ccc45)c3)=NN2c2ccc(Cl)cc2)cc(OC)c1OC (configuration not stated) ?
-1

Assay outcome for CCc1ccc(-c2ccc(NC3CCCCCC3)nn2)cc1S(N)(=O)=O : what was it?
-1

What did the test return for COC(=O)C(C)NC1=C(Cl)C(=O)C(NC(C)C(=O)OC)=C(Cl)C1=O (configuration not stated) ?
-1

Recorded call for C/C(CC(=O)NNc1ccc([N+](=O)[O-])cc1)=N\Nc1ccc([N+](=O)[O-])cc1 ?
-1

What is the recorded call for this compound in the test? CC(=O)c1c(C)nc(-c2cc(C)cc(Cl)c2)nc1-c1cccc(Oc2ccccc2)c1
-1

Give the logged outcome of this assay for the following compound: COc1cc(NCCCCC(C)N)c2nccc(C)c2c1 (configuration not stated)
-1

Hello, I am checking results. What call was entered for O=C(NC1CC1)c1ccc(-c2nc3ccc4[nH]ncc4c3c3c2CCCC3)cc1 ?
-1

# lookup: test call for Cc1ccc(-c2nc3ccccc3c(=O)n2/N=C/c2cccc3ccccc23)cc1
-1

// return assay outcome for CCN(CC)c1ccc(C(=N)c2ccc(N(C)C)cc2)cc1
-1

Field: outcome | Entry: COC(=O)c1cc(Cl)cc([N+](=O)[O-])c1O
-1

Please let me know the test result on file for CC(COC(=O)c1ccccc1)N1CC2CCC(C1)O2 (configuration not stated) .
-1

I'd appreciate the recorded outcome for CCN(CC)c1ccc2nc3c4ccccc4c(=O)cc-3n(-c3ccccc3)c2c1 from this test.
1

Which outcome did this test record for the compound Cn1nc(C(F)(F)F)cc1-c1c[nH]c(OCc2ccc(Cl)cc2)c(-c2ccc(Cl)c(C(F)(F)F)c2)c1=O ?
1
